- target.of.assay: T1, huCD300F constitutively expressed on 293 Freestyle (Freestyle HEK) cells (human, UniProt Q8TDQ1 20-290)
- T1 construct: also called huCD300LF; Human CD300F
- T1 sequence: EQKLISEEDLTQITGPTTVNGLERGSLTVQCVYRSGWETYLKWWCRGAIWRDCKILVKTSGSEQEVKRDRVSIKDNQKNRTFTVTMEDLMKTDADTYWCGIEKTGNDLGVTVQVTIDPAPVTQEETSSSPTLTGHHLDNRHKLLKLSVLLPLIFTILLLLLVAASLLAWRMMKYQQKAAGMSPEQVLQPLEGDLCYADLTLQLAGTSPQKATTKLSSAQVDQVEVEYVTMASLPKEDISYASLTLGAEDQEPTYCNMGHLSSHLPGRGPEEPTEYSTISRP
- measurement.protocol: flow cytometry, stable Freestyle HEK cells
Below is a list of entries, each paired with its recorded gMFI value.
Number in gMFI, nothing else.

>  <binder>
anti-CD300LB antibody CD-02 (antibody, V domains shown) VH: QVQLQQPGAELVRPGSSVKLSCQASGYTFTNYWMHWVRQRPIQGLEWIGNIDPSDSETHYNQKFKDRATLTVDKSSSTAYMQLSSLTSEDSAVYYCARSGVYDDEGGDYWGQGTTLTVSS VL: ENVLTQSPAIMSASPGEKVTMTCSASSSVSYIHWYQQKSSTSPKLWIYDTSKLASGVPGRFSGSGSGNSYSLTISSMETEDVATYYCFQGSGYPLTFGAGTKLELK

>  <measured.result>
-93

$$$$

Now turn to the next binder.
If you can, please state the reported gMFI value of anti-CD300LB antibody CD-08 (antibody, V domains shown) VH: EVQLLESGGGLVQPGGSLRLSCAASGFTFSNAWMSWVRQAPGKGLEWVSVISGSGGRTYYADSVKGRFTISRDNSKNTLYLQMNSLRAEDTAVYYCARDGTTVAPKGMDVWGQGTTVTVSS VL: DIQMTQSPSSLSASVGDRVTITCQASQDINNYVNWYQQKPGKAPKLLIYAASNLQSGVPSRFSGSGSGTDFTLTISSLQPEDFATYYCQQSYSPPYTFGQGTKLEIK .
212
